System: human mammary carcinoma MX-1 xenograft
RUN CONDITIONS: low doses: dEpoB 15, EpoB 0.3, Taxol 5, Vinblastine 0.2 mg/kg i.p. Q2D day 7-15
Counter-ions that a name gives are not always drawn.
Listed compounds paired with reported Average Tumor Volume (T/C), Day 15
Field: numeric (T/C). Do not append units.

Recorded Average Tumor Volume (T/C), Day 15, per entry:
[
  {
    "COMPOUND": "C/C(=C\\c1csc(C)n1)[C@@H]1C[C@@H]2O[C@]2(C)CCC[C@H](C)[C@H](O)[C@@H](C)C(=O)C(C)(C)[C@@H](O)CC(=O)O1",
    "Average Tumor Volume (T/C), Day 15": 0.71
  },
  {
    "COMPOUND": "CC(=O)O[C@H]1C(=O)[C@@]2(C)[C@H]([C@H](OC(=O)c3ccccc3)[C@]3(O)C[C@H](OC(=O)[C@H](O)[C@@H](NC(=O)c4ccccc4)c4ccccc4)C(C)=C1C3(C)C)[C@]1(OC(C)=O)CO[C@@H]1C[C@@H]2O",
    "Average Tumor Volume (T/C), Day 15": 0.40
  },
  {
    "COMPOUND": "C/C1=C/C[C@@H](/C(C)=C/c2csc(C)n2)OC(=O)C[C@H](O)C(C)(C)C(=O)[C@H](C)[C@@H](O)[C@@H](C)CCC1",
    "Average Tumor Volume (T/C), Day 15": 0.49
  }
]

[in] Given the compound CC[C@]1(O)C[C@@H]2CN(CCc3c([nH]c4ccccc34)[C@@](C(=O)OC)(c3cc4c(cc3OC)N(C)[C@H]3[C@@](O)(C(=O)OC)[C@H](OC(C)=O)[C@]5(CC)C=CCN6CC[C@]43[C@@H]65)C2)C1 [Vinblastine, Vinblastine sulfate] , what is its reported Average Tumor Volume (T/C), Day 15?
[out] 0.56
